Tested on: AEA reuptake in HaCaT cells
Assay: cells
Assay type: cell-based, human
Conditions: read-out: AEA reuptake IC50 (95% CI) HaCaT cells
pIC50: −log10 of the molar value.
attribute.measured: pIC50

Item `CCCC(C)(C)c1ccc2c(c1)OC(C)(C)[C@@H]1CC=C(C)C[C@@H]21` has what recorded pIC50?
< 5.00

I'd like to know its pIC50. The compound in question is CN1CCCC[C@@H]1Cn1cc(C(=O)c2cc([N+](=O)[O-])ccc2I)c2ccccc21 [(R)-AM1241]
< 5.30

Name the reported pIC50 value associated with the compound `Cc1c(C(=O)c2cccc3ccccc23)c2cccc3c2n1[C@H](CN1CCOCC1)CO3`
< 5.30

Returns the measured pIC50 for the input compound. Input: `CCCn1c(C)c(C(=O)c2cccc3ccccc23)c2ccccc21`
< 5.30

Param item = `CCCCCCC(C)(C)c1cc(OC)c(C2=C[C@H]3CC[C@]2(CO)C3(C)C)c(OC)c1` ; retrieve measured pIC50.
< 5.00

###

Molecular target: UniProtKB P47936
Sequence (P47936 whole entry): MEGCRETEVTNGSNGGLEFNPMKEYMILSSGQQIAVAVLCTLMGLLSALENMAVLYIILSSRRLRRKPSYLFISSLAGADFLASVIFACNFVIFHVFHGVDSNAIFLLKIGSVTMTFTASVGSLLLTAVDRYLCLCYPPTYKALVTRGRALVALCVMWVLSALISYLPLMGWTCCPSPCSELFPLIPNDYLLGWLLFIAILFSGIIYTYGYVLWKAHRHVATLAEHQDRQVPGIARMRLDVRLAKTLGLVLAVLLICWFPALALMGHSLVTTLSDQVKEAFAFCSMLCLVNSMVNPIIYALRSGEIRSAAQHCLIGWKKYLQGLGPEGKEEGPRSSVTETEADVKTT
Assay: biochemical
Format: binding
Set-up: from tissue; host or cells: spleen of male C57BL/6J mice
Details: mouse spleen membranes
attribute.measured: pKi ± SEM mCB2R

Requested read-out: pKi ± SEM mCB2R. Entry: CCCn1c(C)c(C(=O)c2cccc3ccccc23)c2ccccc21 [JWH015]
6.63 ± 0.21

I am curious: what pKi ± SEM mCB2R value has been reported for COc1ccc(C(=O)c2c(C)n(CCN3CCOCC3)c3cc(I)ccc23)cc1 [AM630] ?
7.66 ± 0.23

Query: pKi ± SEM mCB2R; subject: Cc1c(C(=O)c2cccc3ccccc23)c2cccc3c2n1[C@H](CN1CCOCC1)CO3 [WIN55212-2]
7.28 ± 0.17

###

Target: Rat recombinant TRPV3 (Rattus norvegicus)
Construct: expressed in transfected cells; host or cells: HEK293 (TRPV3-HEK-293, gift from HB Bradshaw, Indiana University)
Sequence (Q4QYD9 1-791): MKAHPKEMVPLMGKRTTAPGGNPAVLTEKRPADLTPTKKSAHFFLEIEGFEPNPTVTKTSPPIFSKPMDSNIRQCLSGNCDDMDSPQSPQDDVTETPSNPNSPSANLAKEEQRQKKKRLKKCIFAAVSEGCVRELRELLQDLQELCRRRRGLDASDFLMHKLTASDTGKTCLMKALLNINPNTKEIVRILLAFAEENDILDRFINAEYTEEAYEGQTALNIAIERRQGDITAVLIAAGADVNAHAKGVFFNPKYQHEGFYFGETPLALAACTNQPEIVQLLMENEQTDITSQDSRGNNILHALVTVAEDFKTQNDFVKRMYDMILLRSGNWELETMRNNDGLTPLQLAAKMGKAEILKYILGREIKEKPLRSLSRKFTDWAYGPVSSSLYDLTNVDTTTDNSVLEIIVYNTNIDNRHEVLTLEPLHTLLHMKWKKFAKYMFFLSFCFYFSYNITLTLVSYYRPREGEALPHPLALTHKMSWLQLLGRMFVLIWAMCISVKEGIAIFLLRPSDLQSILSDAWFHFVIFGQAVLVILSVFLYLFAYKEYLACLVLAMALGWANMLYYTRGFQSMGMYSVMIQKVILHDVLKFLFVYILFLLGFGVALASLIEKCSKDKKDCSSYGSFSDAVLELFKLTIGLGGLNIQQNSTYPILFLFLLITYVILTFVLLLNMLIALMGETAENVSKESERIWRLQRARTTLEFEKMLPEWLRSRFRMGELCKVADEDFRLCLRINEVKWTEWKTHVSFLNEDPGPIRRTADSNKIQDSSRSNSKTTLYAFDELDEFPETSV
Test: cell-based
Type: cell-based
Details: vs thymol 100μM; read-out: TRPV3 IC50 for antagonism or desensitization
Please go through the items and note down their IC50.

Which IC50 is listed for `Cc1c(C(=O)c2cccc3ccccc23)c2cccc3c2n1[C@H](CN1CCOCC1)CO3` ?
> 100 µM

Please report the recorded IC50 for CN1CCCC[C@H]1Cn1cc(C(=O)c2cc([N+](=O)[O-])ccc2I)c2ccccc21 [(S)-AM1241] .
> 50 µM

I am curious: what IC50 value has been reported for `CCCCCCC(C)(C)c1cc(OC)c([C@@H]2C=C(CO)[C@@H]3C[C@H]2C3(C)C)c(OC)c1` ?
> 100 µM

Look at this molecule and give its reported IC50. `COc1ccc(C(=O)c2c(C)n(CCN3CCOCC3)c3cc(I)ccc23)cc1`
> 100 µM

Suppose we examine the molecule CN1CCCC[C@@H]1Cn1cc(C(=O)c2cc([N+](=O)[O-])ccc2I)c2ccccc21 [(R)-AM1241] ; what IC50 value has been reported?
> 50 µM
